Taken from paper PMC11714206.

# system: MyD88^TIR (Homo sapiens)
# Construct: MyD88 (residues 148–296); 6xHis; made in house; host or cells: E. coli BL21 (DE3)
# Sequence (Q99836 148-296): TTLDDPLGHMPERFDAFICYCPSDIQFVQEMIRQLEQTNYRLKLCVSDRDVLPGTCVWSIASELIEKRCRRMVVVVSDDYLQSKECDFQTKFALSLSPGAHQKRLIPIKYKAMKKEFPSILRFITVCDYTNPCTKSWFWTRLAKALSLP
# assayDetails: T‐Surf phage library (P8 and P3) selection against MyD88^TIR, four rounds, NGS read counts
# Type: binding
# testContext: P8_MyD88: rank by count after grouping
measurementType: Rank (after)
Please give the numeric answer without any surrounding text.

Please review the entries below; each comes with its answer.
YLEWPLDENQQLIFWF    477
SMTPLSDFWKELALVL    97
DPQDLDWFYERLLSLS    422
DPQNLQWFYERLVILI    392
WALNELLEILKAREDI    115

Any idea what its Rank (after) is? The sequence is NYASSSWALDELLRILY
155

Next record, please: LEANDSLFWDRLLYSLHVTE
179

Next record, please: QWALEELRLIMELHSV
158

Next record, please: DPQARDCFYERLVSLF
476

Next record, please: WFLTAFRMAMDQVADT
95

Next record, please: QYLRWPEDFQDVGWFL
144

Next record, please: FDASSSWALDELLRILY
404

Next record, please: PQELEWFHKRLVRLIL
455

Next record, please: YELDFSHFSLFEGQAT
463

Next record, please: ELDFSHFWLFEGHATGEA
127

Next record, please: DYTSSPWALEELLKIM
159

Next record, please: WPQDPQDLGWFYERLE
416

Next record, please: YYFTDWDSEAEIIQKM
112

Next record, please: FFSGFRELEDFISKLW
105

Next record, please: DPQDLEWFYERLVILF
446

Next record, please: WLESVLEDKFGYSLAL
110

Next record, please: HWIEWEYFVGIEEHIK
397

Next record, please: TEPADTAFWDALWNKL
188

Next record, please: VRHTFAGYLYDALNRL
141

Next record, please: DPQDRDWIYERLVSLF
423

Next record, please: DFLLTILEAMKTKNQL
148
